Tested on: P. falciparum Dd2 (multidrug-resistant)
Experiment: Plasmodium falciparum growth inhibition assay (SYBR green I), Dd2 strain
Type: cell-based
Conditions: Resistance Index
RI: [IC50PfDd2/IC50Pf3D7] values by entry
Just the number, please.

• C[C@H]1[C@H]2CC[C@H]3[C@@H]4CC=C5C[C@@H](N(C)C)CC[C@]5(C)[C@H]4CC[C@]23CN1C = 1.09
• CC(=O)C1CCC2C3CC=C4CC(N)CCC4(C)C3CCC12C (stereo not shown) = 1.12
• COc1cc(C)c2c(=O)c3c(O)cc(OC)cc3oc2c1 = 1.09

Next compound, RI: [IC50PfDd2/IC50Pf3D7] to be filled in.
Q: Indicate its recorded RI: [IC50PfDd2/IC50Pf3D7]; the compound in question is C[C@@H]1CC[C@H]2[C@@H](C)C(=O)O[C@@H]3O[C@@]4(C)CC[C@@H]1[C@]32OO4 [Artemisinin, reference compound]
Ans: 0.71
